The reader will find reported inhibition at 100 µg/mL values listed item by item below.
System: Mycobacterium tuberculosis
protocol text: Antitubercular activity against Mycobacterium bovis BCG at 100 ug/ml after 6 days by microplate alamar blue assay
Format: functional
applied conditions: variant bovis BCG, 144 h
experimental readout: inhibition at 100 µg/mL (%)

                               input_smiles  recorded_value
0      CCCc1ccc(C#Cc2c[nH]c(=O)[nH]c2=O)cc1             100
1                  C(C#Cc1ccccn1)#Cc1ccccn1             100
2  O=c1[nH]c(=O)n([C@H]2C[C@H](O)[C@@H](CO)O2)cc1C#Cc1ccccn1              50
3                   CCCc1cc2c[nH]c(=O)nc2o1              90
4         O=c1[nH]cc(C#Cc2ccccc2)c(=O)[nH]1              90
5         O=c1[nH]cc(C#Cc2ccccn2)c(=O)[nH]1              90
6    CCCCCc1ccc(C#Cc2c[nH]c(=O)[nH]c2=O)cc1              90
7  Nc1nc(=O)n([C@H]2C[C@H](O)[C@@H](CO)O2)cc1C#Cc1ccccn1              90
